Assay: in vitro
Settings: human
Property: IC50; scope: individual compounds
Report as a plain number; the unit µM is understood.

>  <compound>
CC(C)[Si](Oc1cc(O)cc(/C=C/c2ccc(O)cc2)c1)(C(C)C)C(C)C

>  <IC50 [µM]>
1.8

$$$$

Q: Entry under review: `CC[Si](CC)(CC)Oc1ccc(/C=C/c2cc(O)cc(O)c2)cc1` . Reported IC50?
Result: 32.1

Q: Entry under review: CCCCOc1cc(/C=C/c2ccc(OS(=O)(=O)O)cc2)cc(OS(=O)(=O)O)c1 [compound 15, 3-butyl-4′,5-disulfate resveratrol] . Reported IC50?
Result: 24.9

Q: Entry under review: `CC(C)[Si](Oc1ccc(/C=C/c2cc(O)cc(O)c2)cc1)(C(C)C)C(C)C` . Reported IC50?
Result: 2.8

---

Property: MIC; scope: individual compounds
System: E. faecalis V583
Experiment: microbe, parasite or virus in culture
Type: cell-based, Enterococcus faecalis
Conditions: Enterococcus faecalis, V583, 20 h, read-out: Minimal Inhibition Concentration (MIC) E. faecalis V583
Report as a plain number; the unit µM is understood.

>  <compound>
CCCCOc1cc(/C=C/c2ccc(OS(=O)(=O)O)cc2)cc(OS(=O)(=O)O)c1 [compound 15, 3-butyl-4′,5-disulfate resveratrol]

>  <MIC [µM]>
26.6

$$$$
>  <compound>
CCCCCCCCCCCC(=O)OC[C@H]1O[C@@H](Oc2cc(O)cc(/C=C/c3ccc(O)cc3)c2)[C@H](O)[C@@H](O)[C@@H]1O

>  <MIC [µM]>
53.3

$$$$
>  <compound>
CN[C@H](CC(C)C)C(=O)N[C@H]1C(=O)N[C@@H](CC(N)=O)C(=O)N[C@H]2C(=O)N[C@H]3C(=O)N[C@H](C(=O)N[C@H](C(=O)O)c4cc(O)cc(O)c4-c4cc3ccc4O)[C@H](O)c3ccc(c(Cl)c3)Oc3cc2cc(c3O[C@@H]2O[C@H](CO)[C@@H](O)[C@H](O)[C@H]2O[C@H]2C[C@](C)(N)[C@H](O)[C@H](C)O2)Oc2ccc(cc2Cl)[C@H]1O [vancomycin, reference compound]

>  <MIC [µM]>
9.8

$$$$

Could you now look at the following compound, please?
Q: Entry under review: `CC(C)[Si](Oc1ccc(/C=C/c2cc(O)cc(O)c2)cc1)(C(C)C)C(C)C` . Reported MIC?
Result: 21.3

---

Test system: S. aureus LMG8224
Test: Combined action with antibiotics (MIC reduction, checkerboard FICI)
Assay type: cell-based, Staphylococcus aureus
Conditions: fractional inhibitory concentration index, EUCAST, * means relevant FICI values
quantity: FICI, antibiotic with 17
Reply: number alone, nothing else.

# annotated cases, reported FICI, antibiotic with 17 shown
>  <compound>
NCC[C@H](O)C(=O)N[C@@H]1C[C@H](N)[C@@H](O[C@H]2O[C@H](CN)[C@@H](O)[C@H](O)[C@H]2O)[C@H](O)[C@H]1O[C@H]1O[C@H](CO)[C@@H](O)[C@H](N)[C@H]1O

>  <quantity>
FICI, antibiotic with 17

>  <observed-result>
0.60

$$$$
>  <compound>
CNC(C)C1CCC(N)C(OC2C(N)CC(N)C(OC3OCC(C)(O)C(NC)C3O)C2O)O1 (stereo not shown)

>  <quantity>
FICI, antibiotic with 17

>  <observed-result>
0.58

$$$$
>  <compound>
NC[C@H]1O[C@H](O[C@H]2[C@H](O)[C@@H](O[C@H]3O[C@H](CO)[C@@H](O)[C@H](N)[C@H]3O)[C@H](N)C[C@@H]2N)[C@H](O)[C@@H](O)[C@@H]1O

>  <quantity>
FICI, antibiotic with 17

>  <observed-result>
0.75

$$$$

Could you now look at the following compound, please?
Q: Entry under review: `[H]/N=C(/N)N[C@H]1[C@H](O)[C@@H](O)[C@H](O[C@@H]2O[C@@H](C)[C@](O)(C=O)[C@H]2O[C@@H]2O[C@@H](CO)[C@H](O)[C@@H](O)[C@@H]2NC)[C@@H](N/C(N)=N\[H])[C@@H]1O` . Reported FICI, antibiotic with 17?
Result: 0.75
